Entries and their measured Nuclear Count follow.
system: SH-SY5Y cells; assay: Nuclear count from microscopy images (cellular growth and toxicity); conditions: PKIS2 primary screening; note: reference of the scale not given here
Output: the number by itself.

Below: 6 compounds and their reported Nuclear Count.
FC(F)(F)c1ccc(-c2nn3ncccc3c2-c2ccnc(Nc3cccc(C(F)(F)F)c3)n2)cc1 [UNC10225138A]; 92.79
CSc1nn2c(=O)cc(N3CCOCC3)nc2n1Cc1cccc(C(F)(F)F)c1C [UNC10225417A]; 112.74
O=C(NC1CCN(c2ccnc(Nc3ccc(F)cc3)n2)C1)c1cc2ccccc2s1 (centres unmarked) [GSK1379716]; 86.00
CC1=C(C(=O)Nc2cc3cn[nH]c3cc2F)C(c2ccc(C(F)(F)F)cc2)CC(=O)N1 (centres unmarked) [UNC10225339A]; 108.36
Cl.Cl.NCC(NC(=O)c1cc(-c2cccnc2)c(-c2ccnc3[nH]ccc23)s1)c1ccccc1 (centres unmarked) [UNC10225315A]; 113.28
COC(=O)Nc1nc2ccc(Oc3ccc(NC(=O)Nc4cc(C(F)(F)F)ccc4F)cn3)cc2[nH]1 [GW681170]; 116.32

Which Nuclear Count is listed for C[C@@H](Oc1cc(-n2cnc3cc(-c4ccncc4)ccc32)sc1C(N)=O)c1ccccc1Cl [UNC10225262A] ?
39.15

Record: Cc1cccc(-c2nc(Nc3ccc4c(cnn4C)c3)c3ccccc3n2)n1 [GW876731]
107.18

Record: CC(C)c1cc(-c2ccc3c(N)n[nH]c3c2)nc(N)n1 [GSK2250882]
92.23

Record: CN1CCN(Cc2ccc(NC(=O)Nc3ccc(N(C)c4ccnc(Nc5ccc(CS(C)(=O)=O)cc5)n4)cc3)cc2)CC1 [GW827654]
120.62

Record: COc1cccc(C2=C(N(C)c3ccccc3)C(=O)NC2=O)c1 [UNC10225293A]
78.26

Record: O=C(c1ccc(-c2cc(-c3c[nH]nc3-c3ccccn3)ccn2)cc1)N1CCCC1 [UNC10225230A]
86.33

Record: N#Cc1ccc(-c2cc(-c3c[nH]nc3-c3ccccn3)ccn2)cc1 [UNC10225072A]
116.96

Record: CCn1cnc2c(NCc3ccccc3)ncnc21 [UNC10225370A]
102.90

Record: COc1ccc(-c2nc3n(c2-c2ccncc2)CCC3)cc1 [UNC10225334B]
89.36

Record: Nc1nc(-c2ccc3c(N)n[nH]c3c2)cc(N2CCCCC2)n1 [GSK2228768]
85.37

Record: COc1cccc(CC(=O)N2CCc3cc(-c4cn(C)c5ncnc(N)c45)ccc32)c1 [UNC10224987A]
115.64

====

system: SH-SY5Y cells; test: AK (adenylate kinase) release ToxiLight cytotoxicity assay; conditions: PKIS2 primary screening; note: reference of the scale not given here
Reported Property: AK
Output: the number by itself.

Which AK is listed for COc1cc(Nc2nccc(N3CCC(NC(=O)C4COc5ccccc5O4)C3)n2)cc(OC)c1OC (stereo not drawn) [GSK1379761] ?
96.01

Record: CCCCCc1nc2c(N)ncnc2n1CCCCC [UNC10225389A]
96.98

Record: CC(C)(CN)c1nc(-c2ccc(Cl)c(O)c2)c(-c2ccncc2)[nH]1.O=C(O)C(F)(F)F [UNC10225206A]
94.20

Record: Cc1ccc(NC(=O)Nc2ccc(Cl)cc2)cc1-c1ccc(C(=O)Nc2ccncc2)cc1 [UNC10225388A]
83.48

Record: Cc1cccc(-c2nc(Nc3ccc4ncsc4c3)c3ccccc3n2)n1 [GW867588]
60.47

Record: CSc1nn2c(=O)cc(N3CCOCC3)nc2n1Cc1cccc(C(F)(F)F)c1C [UNC10243881A]
100.35

Record: CC(C(=O)NC1CCN(c2ccnc(Nc3ccc(F)cc3)n2)C1)c1ccc(Cl)cc1 (stereo not drawn) [GSK1379713]
94.01

Record: N#Cc1ccc(CCNc2nccc(-c3cccc(CN4CCNCC4)c3)n2)cc1 [GSK2137462]
187.39

Record: CCn1c(-c2ccoc2)nc2cnccc21 [UNC10225474A]
125.64

Record: CCC(CC)(CC)n1cnc2c(N)ncnc21 [UNC10225302A]
115.78

Record: Nc1nc(-c2ccc3c(N)n[nH]c3c2)cc(N2CCCC2)n1 [GSK2227430]
104.62
